Origin of measurements: patent US11939308B2

// reported NDPK activity per item
Target: recombinant Nm23-H1 (Homo sapiens, UniProt P15531)
Sequence (P15531 whole entry): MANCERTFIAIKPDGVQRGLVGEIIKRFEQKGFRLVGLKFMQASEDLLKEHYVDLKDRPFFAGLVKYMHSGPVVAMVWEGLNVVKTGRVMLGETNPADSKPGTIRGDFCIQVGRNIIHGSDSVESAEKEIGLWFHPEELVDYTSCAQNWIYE
Experiment: NDPK assay with recombinant Nm23-H1
Assay type: biochemical
Design: unit not given here
Settings: 5 ng recombinant Nm23-H1, 10 min room temperature, then 5 μM ADP 1 min; compound concentration not given
QUANTITY_KIND: NDPK activity

{"MOLECULE": "COc1cc(-c2ccccc2CCc2ccc(OC)c(OC)c2)ccc1O", "VALUE_REPORTED": 4}
{"MOLECULE": "COc1ccc(-c2ccccc2CCc2ccc(OC)c(OC)c2)cc1O", "VALUE_REPORTED": 1.9}
{"MOLECULE": "COc1ccc(-c2ccccc2C2OC2c2ccc(OC)c(OC)c2)cc1OC (stereo not shown)", "VALUE_REPORTED": 4.08}
{"MOLECULE": "COc1ccc(C(=O)Nc2ccccc2-c2ccc(OC)c(OC)c2)cc1OC", "VALUE_REPORTED": 1.52}
